Tested on: AuAHLA
Construct: gene ahla; full ORF of 808 residues expressed untagged in Rhodococcus sp; T104, secreted; signal peptide of 34-35 aa removed
ASSAY_INFO: hydrolysis, o-phthalaldehyde fluorometric assay of released primary amine
Format: biochemical, Actinoplanes utahensis
ASSAY_CONTEXT: 0.2 M potassium phosphate pH 8.0, 45 °C
MEASUREMENT_TYPE: Km

**Query** Consider the compound shown here: CC1(C)S[C@@H]2[C@H](NC(=O)Cc3ccccc3)C(=O)N2[C@H]1C(=O)O What is its recorded Km?
**Result** 1210 µM

###

Tested on: AuAHLA
Construct: gene ahla; full ORF of 808 residues expressed untagged in Rhodococcus sp; T104, secreted; signal peptide of 34-35 aa removed
ASSAY_INFO: hydrolysis, o-phthalaldehyde fluorometric assay of released primary amine
Type: biochemical, Actinoplanes utahensis
ASSAY_CONTEXT: 0.2 M potassium phosphate pH 8.0, 45 °C
MEASUREMENT_TYPE: Km (µM)
I only need the number, in µM, no unit after it.

| CHEM_SMILES | TGT | MEASUREMENT_TYPE | NUMERIC_VALUE |
| --- | --- | --- | --- |
| CCCCCCCC(=O)N[C@@H]1C(=O)N2[C@@H]1SC(C)(C)[C@@H]2C(=O)O | AuAHLA | Km | 675 |
| CCCCCC(=O)N[C@@H]1C(=O)N2[C@@H]1SC(C)(C)[C@@H]2C(=O)O | AuAHLA | Km | 199 |

Continue with the molecule presented below.
**Query** Consider the molecule shown here: CC1(C)S[C@@H]2[C@H](NC(=O)COc3ccccc3)C(=O)N2[C@H]1C(=O)O What is its recorded Km?
**Result** 472
